# assay.target: hAdoMetDC (Homo sapiens, UniProt P17707)
# Construct: the enzyme undergoes autoprocessing to give the α and the β subunits
# Sequence (P17707 1-67 limits assumed): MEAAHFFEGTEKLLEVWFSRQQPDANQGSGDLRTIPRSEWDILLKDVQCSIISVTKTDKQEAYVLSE
# Sequence (P17707 68-328 limits assumed): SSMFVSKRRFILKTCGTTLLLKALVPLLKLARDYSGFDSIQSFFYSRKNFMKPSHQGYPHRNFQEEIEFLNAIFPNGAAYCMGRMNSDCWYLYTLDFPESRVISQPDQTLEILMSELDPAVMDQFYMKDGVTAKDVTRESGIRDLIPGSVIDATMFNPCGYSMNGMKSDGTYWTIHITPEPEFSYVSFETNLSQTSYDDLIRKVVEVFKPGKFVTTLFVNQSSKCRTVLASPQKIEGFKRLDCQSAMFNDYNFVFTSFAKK
# assay.remarks: Assay of AdoMetDC activity (release of 14CO2 from S-adenosyl-L-[carboxy-14C]methionine) and determination of inhibitor IC50 values
# experimental.context: at least 5 concentrations; curve fit of inhibitor concentration versus % inhibition of hAdoMetDC
pIC50: −log10 of the molar value.

| molecule | pIC50 |
| --- | --- |
| CN(CCC(=N)NO)C[C@H]1O[C@@H](n2cnc3c(N)ncnc32)[C@H](O)[C@@H]1O [Compound 18c] | 3.80 |
| CNc1nc2c(N)ncnc2n1[C@@H]1O[C@H](CN(C)CCCN)[C@@H](O)[C@H]1O [Compound 14a] | 3.36 |
| CN(CCC(=O)NN)C[C@H]1O[C@@H](n2cnc3c(N)ncnc32)[C@H](O)[C@@H]1O [Compound 13l] | 5.82 |
| CNc1nc2c(N)ncnc2n1[C@@H]1O[C@H](CN(C)CCON)[C@@H](O)[C@H]1O [Compound 7b] | 7.07 |
| CCc1nc2c(N)ncnc2n1[C@@H]1O[C@H](CN(C)CCCN)[C@@H](O)[C@H]1O [Compound 17d] | 3.38 |
| CN(CCCN)C[C@H]1O[C@@H](n2cnc3c(N)ncnc32)[C@H](O)[C@@H]1O [Compound 14d] | 3.30 |
| CN(C)C[C@H]1O[C@@H](n2cnc3c(N)ncnc32)[C@H](O)[C@@H]1O [Compound 19b, 5′-Deoxy-5′-(N,N-dimethylamino)adenosine] | 5.05 |
| CCc1nc2c(N)ncnc2n1[C@@H]1O[C@H](CN(C)CCC(N)=O)[C@@H](O)[C@H]1O [Compound 13e] | 5.40 |
